Data origin: patent US20210196796A1

Biological target: T1, orthogonal hCD122 receptor (hoRb), hCD122 with H133D and Y134F (human, UniProt P14784 27-550)
T1 sequence: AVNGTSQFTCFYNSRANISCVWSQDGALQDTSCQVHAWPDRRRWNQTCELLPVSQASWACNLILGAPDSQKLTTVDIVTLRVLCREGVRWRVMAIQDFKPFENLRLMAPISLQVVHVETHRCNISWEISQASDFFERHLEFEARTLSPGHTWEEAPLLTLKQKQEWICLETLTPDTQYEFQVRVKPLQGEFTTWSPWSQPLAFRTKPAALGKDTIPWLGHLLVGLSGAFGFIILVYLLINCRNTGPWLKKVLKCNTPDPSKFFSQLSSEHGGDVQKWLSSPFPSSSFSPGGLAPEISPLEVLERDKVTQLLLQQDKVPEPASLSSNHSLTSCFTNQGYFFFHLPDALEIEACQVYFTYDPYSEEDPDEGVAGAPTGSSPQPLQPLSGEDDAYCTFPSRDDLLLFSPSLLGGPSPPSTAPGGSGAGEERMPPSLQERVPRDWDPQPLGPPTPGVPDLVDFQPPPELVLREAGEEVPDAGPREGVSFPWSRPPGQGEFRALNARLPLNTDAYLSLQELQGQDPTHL
Test: cell-based or functional assay
measurement type: NKL Ortho Proliferation Signal 1:10

binder="ΔL14, SQVLKA (ligand) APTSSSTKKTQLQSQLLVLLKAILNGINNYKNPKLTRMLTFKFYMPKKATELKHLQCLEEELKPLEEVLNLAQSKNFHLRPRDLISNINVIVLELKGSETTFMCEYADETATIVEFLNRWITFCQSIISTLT" measurement_type="NKL Ortho Proliferation Signal 1:10" quantitative_result=23500
binder="N88Q, SQVLKA (ligand) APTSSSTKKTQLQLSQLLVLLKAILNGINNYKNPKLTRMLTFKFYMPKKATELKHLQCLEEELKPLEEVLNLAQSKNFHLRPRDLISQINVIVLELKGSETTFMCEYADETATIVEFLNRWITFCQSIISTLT" measurement_type="NKL Ortho Proliferation Signal 1:10" quantitative_result=6960
binder="R38W, SQVLKA (ligand) APTSSSTKKTQLQLSQLLVLLKAILNGINNYKNPKLTWMLTFKFYMPKKATELKHLQCLEEELKPLEEVLNLAQSKNFHLRPRDLISNINVIVLELKGSETTFMCEYADETATIVEFLNRWITFCQSIISTLT" measurement_type="NKL Ortho Proliferation Signal 1:10" quantitative_result=23800
binder="Q126H, SQVLKA (ligand) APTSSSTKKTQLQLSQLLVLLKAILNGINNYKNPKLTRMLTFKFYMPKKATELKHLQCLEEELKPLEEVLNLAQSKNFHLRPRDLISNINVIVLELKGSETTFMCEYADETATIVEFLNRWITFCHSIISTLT" measurement_type="NKL Ortho Proliferation Signal 1:10" quantitative_result=29000
